- assay method text: small molecules captured by biotinylated probe aFST – biochemical, small-molecule microarray, fluorescence 635/667, stem cell growth factor project, primary screen (AID 1086);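 note: score merges 667 nm fluorescence with signal-to-noise of each printed compound spot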
- condition set: higher = more signal
assay metric: composite z-score

smiles=C=CCNC(=O)[C@@H]1[C@H]2C(=O)O[C@H](c3ccccc3)[C@H](c3ccccc3)N2[C@H](c2ccccc2OCCO)[C@@]12C(=O)N(C(=O)OCCOC)c1ccc(C#CCC(C(=O)OC)C(=O)OC)cc12 endpoint_value=3.09

Recorded composite z-score for "C[n+]1ccc2ccc(O)cc2c1" , please?
-0.173

Recorded composite z-score for "CCCC[C@@H]1C[C@H]1[C@@H](NC(=O)c1ccccc1)c1ccc(-c2ccccc2)cc1" , please?
0.442

Recorded composite z-score for "CC(C)(C)OC(=O)CC[C@@]1(C(N)=O)N=C(c2ccc(OCCCO)cc2)O[C@@H]1c1ccccc1N=[N+]=[N-]" , please?
0.18

---

- assay method text: budding yeast growth modifiers under rapamycin – strain BY4716, OD600, 96 h, primary screen (AID 1091); note: test concentration not given here
- condition set: S. cerevisiae BY4716 + rapamycin, higher = more signal, called active from +8 up or from −8 down
Outcome: criterion met for z-score of at least 0.2; criterion not met for anything lower.

Completed entries (count: 6):
compound=COC(=O)C(CC#Cc1ccc2c(c1)[C@]1(C(=O)N2)[C@H](C(=O)N2CCCCCCC2)[C@H]2C(=O)O[C@H](c3ccccc3)[C@H](c3ccccc3)N2[C@@H]1c1ccccc1OCCO)C(=O)OC assigned_label="criterion not met"
compound=Cc1ccc(S[C@]2(C(=O)NCC(C)C)CC(=O)N(Cc3ccccc3)[C@@H]2c2ccc(CO)cc2)cc1 assigned_label="criterion not met"
compound=CC[C@@H]1C=C(C(=O)O)[C@H](c2ccc(C(C)C)cc2)N1S(=O)(=O)c1ccc(C)cc1 assigned_label="criterion not met"
compound="CN1C(=O)C2C=CC(C(O)c3ccc(Br)cc3)N(Nc3ccccc3)C2C1=O (configuration not stated)" assigned_label="criterion met"
compound=COCCCNC(=O)[C@@]1(C)c2ccccc2C(=O)N(Cc2ccccc2)[C@H]1c1ccc(CO)cc1 assigned_label="criterion not met"
compound=C[N+](C)(C)CCCC[C@@H]1NC(=O)[C@@H]2C[C@H](C(=O)NCCCCCCNC(=O)CS)[C@H](c3cccc(OCCO)c3)N2C1=O assigned_label="criterion not met"

# ---- query compound ----
# bool: z-score of CC(=O)n1cc(C(O)C2C=CC3C(=O)N(c4ccccc4)C(=O)C3N2Nc2ccc(C#N)cc2)c2ccccc21 (configuration not stated) >= 0.2
criterion met

---

- assayed target: Dihydroorotate dehydrogenase (quinone), mitochondrial (Plasmodium falciparum (isolate 3D7))
- assay method text: inhibition of P. falciparum DHODH – biochemical, C-terminal His tag, absorbance 600 nm, primary screen (AID 1175);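 note: recombinant parasite enzyme with a five histidine tag at its C terminus; test concentration not given here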
- condition set: PfDHODH enzyme, DCIP absorbance 600 nm; higher = more signal, called active from +8 up or from −8 down
Measured composite z-score, listed per entry.
Reply: number alone, nothing else.

The cases that follow already have their composite z-score on record.
molecule="O=C(NCC(O)CO)[C@]1(CCS(=O)(=O)c2ccccc2)N=C(c2ccc(OCCCO)cc2)O[C@@H]1c1ccccc1 (some centres undefined)" endpoint_value=-0.162
molecule="CC(C)C(O)C1C=CC2C(=O)N(C)C(=O)C2N1N1CCCCC1 (centres undefined)" endpoint_value=-0.0607
molecule=O=C1c2ccccc2[C@](Cc2ccccc2I)(C(=O)O)[C@H](c2ccc(CO)cc2)N1Cc1ccccc1C(F)(F)F endpoint_value=0.833

Now consider the entry below.
Recorded composite z-score for "C=C(COC)C(=O)CC[C@@H](OC(=O)c1ccccc1-c1ccccc1C(=O)O)c1ccc(CO)o1" , please?
-6.3

---

- Test system: Plasmodium falciparum Sir2 (PF13_0152, Sir2A)
- assay method text: Plasmodium falciparum Sir2A binding compounds – biochemical, small-molecule microarray, 635 nm fluorescence, primary screen (AID 1098);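 note: score merges spot fluorescence intensity with its signal-to-noise ratio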
- condition set: fluorescence 635 nm, higher = more signal
assay metric: composite z-score
Reply: number alone, nothing else.

Recorded composite z-score for O=C1NC(=O)C2C1C=CC(C(O)c1cccs1)N2Nc1ccccn1 (stereo not drawn) , please?
0.809

Recorded composite z-score for "C=CCN1Cc2ccccc2C[C@]2(N=C(c3ccc(OCCCO)cc3)O[C@@H]2c2ccccc2)C1=O" , please?
0.761

Recorded composite z-score for "COc1ccc(CCNC(=O)[C@@]2(C)c3ccccc3C(=O)N(Cc3ccccc3)[C@H]2c2ccc(CO)cc2)cc1" , please?
1.49

Recorded composite z-score for "Cc1c(NC(=O)/C(C#N)=C/C=C/c2ccccc2)c(=O)n(-c2ccccc2)n1C" , please?
0.504

Recorded composite z-score for "CCCC[C@@H]1C[C@H]1[C@@H](NC(=O)c1ccccc1)c1ccccc1" , please?
-0.563

---

- assay method text: small molecules captured by biotinylated probe aFGF10 – biochemical, small-molecule microarray, fluorescence 635/667, stem cell growth factor project, primary screen (AID 1071);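 note: score merges 667 nm spot intensity and signal to noise from triplicate slides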
- condition set: higher = more signal
Measured composite z-score, listed per entry.

The cases that follow already have their composite z-score on record.
smiles=O=C1O[C@@H](c2ccccc2)[C@@H](c2ccccc2)N2[C@@H](c3ccc(O)cc3)[C@]3(C(=O)Nc4ccccc43)[C@@H](C(=O)N3CCCCCCC3)[C@H]12 assay_metric="composite z-score" endpoint_value=0.525
smiles=COCCOC(=O)N1C(=O)[C@@]2(c3ccccc31)[C@H](C(=O)N1CCCCCCC1)[C@H]1C(=O)O[C@H](c3ccccc3)[C@H](c3ccccc3)N1[C@@H]2c1ccccc1OCCO assay_metric="composite z-score" endpoint_value=0.684

Recorded composite z-score for "[N-]=[N+]=NCc1ccccc1C[C@]1(C(=O)N2CCOCC2)N=C(c2ccc(OCCCO)cc2)O[C@H]1c1ccccc1" , please?
0.686

---

- Test system: glycogen synthase kinase-3 (GSK3A per assay name; protocol says GSK3B)
- assay method text: compounds binding glycogen synthase kinase-3 – biochemical, small-molecule microarray, 635 nm fluorescence, GSK3A, primary screen (AID 1103); note: the record names both GSK3A and GSK3B
- condition set: fluorescence 635 nm, higher = more signal
assay metric: composite z-score

The cases that follow already have their composite z-score on record.
molecule=COCC1=C([C@H](O)CCc2ccccc2)[C@H](CO)[C@@H]2C(=O)N(Cc3ccccc3)C(=O)[C@@H]2C1 assay_metric="composite z-score" endpoint_value=0.0321
molecule=CO[C@H]1O[C@H](CO)[C@@H](OC(=O)Nc2ccc3c(c2)OCO3)[C@H](OC(=O)Nc2ccc3c(c2)OCO3)[C@H]1OC(=O)Nc1ccc2c(c1)OCO2 assay_metric="composite z-score" endpoint_value=1.33
molecule=CO[C@H]1O[C@H](CO)[C@@H](OC(=O)Nc2cccc(F)c2)[C@H](OC(=O)Nc2ccccc2-c2ccccc2)[C@@H]1OC(=O)Nc1ccccc1-c1ccccc1 assay_metric="composite z-score" endpoint_value=0.673
molecule=CN(C)CCCCNC(=O)[C@@H]1C[C@@H]2C(=O)N[C@@H](CCCCN)C(=O)N2[C@@H]1c1cccc(OCCO)c1 assay_metric="composite z-score" endpoint_value=0.0265
molecule=COCCCNC(=O)[C@@]1(Sc2ccc(C)cc2)CC(=O)N(Cc2ccccc2)[C@@H]1c1ccc(CO)cc1 assay_metric="composite z-score" endpoint_value=-0.21
molecule="CN1C(=O)C2C(C1=O)C1C=C(c3ccc(CO)cc3)C2C(C2CC2)N1Cc1sc2ccccc2c1Cl (configuration not stated)" assay_metric="composite z-score" endpoint_value=1.33

Now consider the entry below.
Report composite z-score for "C=C[C@H](C)[C@H](O)c1ccc(OCCO)cc1" tested on glycogen synthase kinase-3 (GSK3A per assay name; protocol says GSK3B).
-1.21

---

Measured z-score, listed per entry.
- assayed target: NADPH oxidase 5 (Homo sapiens) (UniProt Q96PH1)
- Sequence (Q96PH1 whole entry, looked up): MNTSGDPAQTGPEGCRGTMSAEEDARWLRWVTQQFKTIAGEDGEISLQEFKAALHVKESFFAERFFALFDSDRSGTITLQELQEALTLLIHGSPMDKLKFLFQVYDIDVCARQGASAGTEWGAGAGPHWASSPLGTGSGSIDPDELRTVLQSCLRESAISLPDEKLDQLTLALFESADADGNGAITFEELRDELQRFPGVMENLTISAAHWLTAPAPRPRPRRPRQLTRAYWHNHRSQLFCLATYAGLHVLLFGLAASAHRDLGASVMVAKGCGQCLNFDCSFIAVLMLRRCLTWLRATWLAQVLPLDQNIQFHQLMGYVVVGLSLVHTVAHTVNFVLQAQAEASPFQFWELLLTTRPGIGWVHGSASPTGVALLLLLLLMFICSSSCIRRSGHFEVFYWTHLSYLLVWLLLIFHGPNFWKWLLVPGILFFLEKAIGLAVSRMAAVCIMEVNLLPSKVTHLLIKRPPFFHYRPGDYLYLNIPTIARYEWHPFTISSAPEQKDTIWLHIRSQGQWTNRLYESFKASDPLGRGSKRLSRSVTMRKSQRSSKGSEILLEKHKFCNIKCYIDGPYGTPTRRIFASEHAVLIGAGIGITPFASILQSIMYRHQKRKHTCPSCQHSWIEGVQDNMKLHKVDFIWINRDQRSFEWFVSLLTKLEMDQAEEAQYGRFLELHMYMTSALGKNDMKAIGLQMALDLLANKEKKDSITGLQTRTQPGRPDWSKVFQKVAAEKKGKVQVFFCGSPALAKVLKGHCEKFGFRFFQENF
- assay method text: compounds shifting NOX5 Amplex Red fluorescence – cell-based, HEK293-NOX5, NOX inhibitor project, primary screen (AID 1161)
- condition set: HEK293-NOX5, ionomycin, 45 min, higher = more signal
Reply: number alone, nothing else.

The cases that follow already have their z-score on record.
molecule=COC(=O)C(CC#Cc1ccc2c(c1)[C@]1(C(=O)N2)[C@H](C(=O)N2CCCCCCC2)[C@H]2C(=O)O[C@H](c3ccccc3)[C@H](c3ccccc3)N2[C@@H]1c1ccccc1OCCO)C(=O)OC assayed_target="NADPH oxidase 5 (Homo sapiens) (UniProt Q96PH1)" assay_metric=z-score endpoint_value=1.22
molecule=O=C1O[C@@H](c2ccccc2)[C@@H](c2ccccc2)N2[C@@H](c3ccccc3OCCO)[C@]3(C(=O)Nc4ccc(C#CC5(O)CCCCCC5)cc43)[C@@H](C(=O)NC[C@H](O)c3ccccc3)[C@H]12 assayed_target="NADPH oxidase 5 (Homo sapiens) (UniProt Q96PH1)" assay_metric=z-score endpoint_value=2.17

Recorded z-score for C=CCC(OC(C)=O)[C@@H]1[C@@H](N(Cc2ccc(-c3ccccc3)cc2)C(=O)c2ccc(C)cc2)c2cc(OCCCO)ccc2N1C(=O)c1ccc2ccccc2n1 (stereo partly drawn) , please?
1.92
